I'd be grateful if you could share measured %Inh for these entries.
# Test system: CTK
# Construct: gene MATK
# measurement-conditions: concentration: 1 μM, replicates: in singlicate; n = 1;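 further: KINOMEscan kinase panel screen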
Numbers only, in %.

# count of solved cases: 4
{"columns": ["query-smiles", "target", "quantity-unit", "%Inh"],
 "data": [
  ["Cc1cccc(-c2cc(Nc3ccncc3)c3ccccc3n2)n1", "CTK", "%", 0],
  ["O=c1cc(N2CCOCC2)nc2n(Cc3cccc(Cl)c3Cl)ccn12", "CTK", "%", 0],
  ["O=C1NC(=O)C(N2CCc3ccccc32)=C1c1ccccc1Cl", "CTK", "%", 0],
  ["O=C(Nc1n[nH]c2nc(-c3nccs3)c(Br)cc12)C1CCCC1", "CTK", "%", 0]
]}

Input: Recall the recorded %Inh for O=C(O)COc1ncnc2cc(-c3ccc4[nH]ncc4c3)sc12 with CTK and state it.
Output: 14

* * *

# Tested on: TRPM6
# measurement-conditions: concentration: 1 μM, replicates: in singlicate; n = 1
value-type: %Inh (%)
Answers are plain numbers, in %.

Give %Inh for each listed item.
1. Fc1cc(Cl)ccc1Nc1ccnc2cc(I)ccc12
2. O=C(Nc1ccc2c(c1)OCO2)NC1CCN(c2ccnc(Nc3ccc(F)cc3)n2)C1 (stereo not drawn)
3. Cn1ccc2ncnc(Oc3ccc(Nc4nc5ccccc5[nH]4)cc3)c21
4. CC(C)(C)c1ccc(C(=O)Nc2cn3cc(Cl)ccc3n2)cc1
5. COc1cc2ncnc(Nc3ccc4nc(-c5ccccc5)[nH]c4c3)c2cc1OC.Cl
6. O=S(=O)(c1ccc(-c2ccnc3[nH]ccc23)cc1)N1CCCC1

Output:
[0, 8, 100, 0, 38, 26]

* * *

I'd be grateful if you could share measured %Inh for these entries.
# System: CAMK4
# measurement-conditions: concentration: 1 μM, replicates: in singlicate; n = 1
One number for each entry, in %.

# count of solved cases: 2
{"columns": ["compound", "quantity-unit", "%Inh"],
 "data": [
  ["Cc1cccc(-c2nc(Nc3ccc4[nH]ncc4c3)c3ccccc3n2)n1 [GW857175]", "%", 0],
  ["COc1ccccc1CNC(=O)c1cc(C(=O)c2ccccc2C)c[nH]1 [GSK364507]", "%", 0]
]}

Give %Inh for each listed item.
1. O=C(Nc1ccc2c(c1)OCO2)NC1CCN(c2ccnc(Nc3ccc(F)cc3)n2)C1 (stereo not drawn) [GSK1379724]
2. COc1ccccc1-c1ccc2c(NC(=O)C3CC3)n[nH]c2n1 [SB-711239]
3. COC(=O)c1c(-c2ccccc2)c2cc(OC)ccc2c(=O)n1Cc1ccccc1
4. COc1cc2ncnc(Nc3ccc4nc(-c5ccccc5)[nH]c4c3)c2cc1OC.Cl [GW282450]
5. Fc1cc(Cl)ccc1Nc1ccnc2cc(I)ccc12 [GW551191]

Output:
1: 1; 2: 0; 3: 0; 4: 0; 5: 0

Give %Inh for each listed item.
1. COC(=O)c1c(-c2ccccc2)c2cc(C(=O)O)ccc2c(=O)n1Cc1ccccc1
2. CN1C(=O)C(Nc2ccc(Cl)c(C(=O)O)c2)=C(c2ccc(Cl)cc2)C1=O [SB-404290]

Output:
1. 18
2. 0

* * *

I'd be grateful if you could share measured %Inh for these entries.
# Tested on: STK39
# measurement-conditions: concentration: 1 μM, replicates: in singlicate; n = 1
One number for each entry, in %.

Give %Inh for each listed item.
1. COc1ccccc1CNC(=O)c1cc(C(=O)c2ccccc2C)c[nH]1 [GSK364507]
2. O=C(Nc1ccccc1)Nc1cccc(Oc2ccc3nccn3n2)c1
3. CN1C(=O)C(Nc2ccc(Cl)c(C(=O)O)c2)=C(c2ccc(Cl)cc2)C1=O [SB-404290]
4. O=C(O)COc1ncnc2cc(-c3ccc4[nH]ncc4c3)sc12

Output:
1. 14
2. 0
3. 0
4. 0

Give %Inh for each listed item.
1. O=S(=O)(c1ccc(-c2ccnc3[nH]ccc23)cc1)N1CCCC1 [GSK846226]
2. Nc1nc(-c2nccs2)c(-c2ccnc3ccccc23)s1 [GW693542]
3. COc1ccccc1-c1ccc2c(NC(=O)C3CC3)n[nH]c2n1 [SB-711239]
4. Cl.O=C(Nc1cccc(-c2nn3ncccc3c2-c2ccnc(Nc3cccnc3)n2)c1)c1c(F)cccc1F [GSK312879]
5. Cc1nnc(-c2ccc3occ(-c4ccc(S(C)=O)cc4)c3c2)[nH]1 (stereo not drawn)

Output:
1: 0; 2: 10; 3: 18; 4: 17; 5: 0
